# experiment-description: Drug level in Sprague-Dawley rat brain after 6 hrs
# Assay type: ADME, tissue-based
# condition-context: read-out: Drug uptake
measured-metric: concentration at 6 h (ng/g)
Answer format: numeric, ng/g implied, no suffix.

Fill in the blank: the reported concentration at 6 h of COc1ccc2c(c1)NC1(CCN(C(=O)c3ccc(OC)c(N(C)C)c3)CC1)c1cccn1-2 is ____. 257

The origin of these recorded values is ChEMBL document CHEMBL3351799.
